molecular target: canine TRPM8 (Canis lupus familiaris, UniProt Q1A7N1); construct: expressed in transfected cells; test: In Vitro Canine TRPM8 Functional Assay (Ca2+ fluorescence, icilin activation); type: cell-based; conditions: HEK293, 0.2 μM compound; canine TRPM8 HEK293; icilin
Sequence (Q1A7N1 1-1104): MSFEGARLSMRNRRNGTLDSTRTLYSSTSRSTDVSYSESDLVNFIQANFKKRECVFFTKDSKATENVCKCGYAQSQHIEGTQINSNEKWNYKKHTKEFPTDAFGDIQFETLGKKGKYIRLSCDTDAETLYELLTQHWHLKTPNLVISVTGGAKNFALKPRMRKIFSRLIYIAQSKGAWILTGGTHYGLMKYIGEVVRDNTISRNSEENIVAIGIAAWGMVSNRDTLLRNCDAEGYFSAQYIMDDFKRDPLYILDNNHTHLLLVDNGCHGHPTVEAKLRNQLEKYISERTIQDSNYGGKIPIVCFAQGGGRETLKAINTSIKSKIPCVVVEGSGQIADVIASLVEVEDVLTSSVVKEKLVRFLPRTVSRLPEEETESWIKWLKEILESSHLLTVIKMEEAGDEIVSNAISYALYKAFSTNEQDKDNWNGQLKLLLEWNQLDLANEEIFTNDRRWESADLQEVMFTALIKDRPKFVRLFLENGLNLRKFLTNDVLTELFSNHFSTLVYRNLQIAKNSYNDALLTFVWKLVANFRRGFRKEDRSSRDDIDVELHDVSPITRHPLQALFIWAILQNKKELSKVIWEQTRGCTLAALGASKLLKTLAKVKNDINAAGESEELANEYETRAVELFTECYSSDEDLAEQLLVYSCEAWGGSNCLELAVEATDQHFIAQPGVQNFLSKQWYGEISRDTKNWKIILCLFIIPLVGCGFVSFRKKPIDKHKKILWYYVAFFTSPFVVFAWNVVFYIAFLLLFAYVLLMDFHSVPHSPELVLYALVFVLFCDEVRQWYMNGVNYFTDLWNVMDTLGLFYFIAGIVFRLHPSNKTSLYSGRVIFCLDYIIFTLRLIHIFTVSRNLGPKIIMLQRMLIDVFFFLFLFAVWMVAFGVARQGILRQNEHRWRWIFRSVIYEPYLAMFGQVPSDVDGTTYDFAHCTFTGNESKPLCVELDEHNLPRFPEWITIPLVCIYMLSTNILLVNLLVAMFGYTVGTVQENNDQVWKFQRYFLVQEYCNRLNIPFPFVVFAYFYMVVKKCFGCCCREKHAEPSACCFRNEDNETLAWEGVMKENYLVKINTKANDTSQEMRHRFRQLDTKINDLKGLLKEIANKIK
ENDPOINT LABEL: inhibition at 0.2 µM (%)

compound="O=C(C(Nc1ccccc1)c1cnc2ccccc2c1)N1CCCC1c1ccccc1F (stereo not drawn)" display_unit=% number=93
compound="O=C(C(Cc1ccccc1F)c1ccc(C(F)(F)F)cc1)N1CCCC1c1ccccc1F (stereo not drawn)" display_unit=% number=99
compound="O=C(C(Nc1c(F)cccc1F)c1ccc(Cl)cc1)N1CCCc2ccccc21 (stereo not drawn)" display_unit=% number=98

* * *

As shown below, each of these molecules has a reported pIC50 value.
biological target: canine TRPM8 (Canis lupus familiaris, UniProt Q1A7N1); experiment: In Vitro Canine TRPM8 Functional Assay (Ca2+ fluorescence, icilin activation); details: HEK293 cells stably expressing canine TRPM8; icilin activation; Ca2+ fluorescence
pIC50: −log10 of the molar value.
ENDPOINT LABEL: pIC50

molecule="Cc1ccccc1NC(C(=O)N1CCc2ccccc21)c1ccc(C(F)(F)F)cc1 (stereo not drawn) [Cpd 34]" number=6.79
molecule="O=C(C(Nc1ccccc1)c1ccc(Cl)cc1)N1Cc2ccccc2C1 (stereo not drawn) [Cpd 87]" number=7.09
molecule="O=C(C(CNc1ccccc1)c1ccc(C(F)(F)F)cc1)N1CCc2ccccc2C1 (stereo not drawn) [Cpd 102]" number=6.80

* * *

As shown below, each of these compounds has a reported log10(IC50) value.
biological target: canine TRPM8 (Canis lupus familiaris, UniProt Q1A7N1); experiment: In Vitro Canine TRPM8 Functional Assay (Ca2+ fluorescence, icilin activation); conditions: HEK293 cells stably expressing canine TRPM8; icilin activation; Ca2+ fluorescence
ENDPOINT LABEL: log10(IC50) (log10 of the value in nM)

compound="O=C(C(Nc1c(F)cccc1F)c1ccc(Cl)cc1)N1CCCc2ccccc21 (stereo not drawn)" number=1.66
compound="O=C(C(Nc1ccccc1)c1ccc(C(F)(F)F)cc1)N1CCCC1c1ccccc1F (single isomer, unassigned) [Cpd 48]" number=2.34
compound="O=C(C(Nc1ccccc1F)c1ccc(C(F)(F)F)cc1)N1CCc2ccccc21 (stereo not drawn)" number=2.66
compound="O=C(C(Nc1ccccc1)c1cccc(C(F)(F)F)c1)N1Cc2ccccc2C1 (stereo not drawn)" number=1.95
compound="COC(=O)C1CCC(c2ccccc2)N1C(=O)C(Nc1ccccc1)c1ccc(Cl)cc1 (single isomer, unassigned) [Cpd 206]" number=1.88
compound="O=C(C(Nc1ccccc1F)c1ccc(C(F)(F)F)cc1)N1CCCC1c1cccnc1 (stereo not drawn)" number=0.85

* * *

biological target: canine TRPM8 (Canis lupus familiaris, UniProt Q1A7N1); construct: expressed in transfected cells; assay: In Vitro Canine TRPM8 Functional Assay (Ca2+ fluorescence, icilin activation); format: cell-based; settings: HEK293, 0.2 μM compound; canine TRPM8 HEK293; icilin
ENDPOINT LABEL: inhibition at 0.2 µM (%)

molecule="O=C(C(Nc1cc(F)ccc1F)c1ccc(Cl)cc1)N1CCCC1c1ccccc1 (stereo not shown)" target="canine TRPM8 (Canis lupus familiaris, UniProt Q1A7N1)" display_unit=% number=103
molecule="CN(C)c1cccc([C@H]2CCCN2C(=O)C(Nc2ccccc2F)c2ccc(C(F)(F)F)cc2)c1 (mixture of isomers)" target="canine TRPM8 (Canis lupus familiaris, UniProt Q1A7N1)" display_unit=% number=100
molecule="O=C(C(c1ccc(C(F)(F)F)cc1)N1CCCc2ccccc21)N1CCCC1c1ccccc1 (stereo not shown)" target="canine TRPM8 (Canis lupus familiaris, UniProt Q1A7N1)" display_unit=% number=72
molecule="O=C(C(Nc1cc(F)ccc1F)c1ccc(Cl)cc1)N1CCCC1c1ccccc1F (stereo not shown)" target="canine TRPM8 (Canis lupus familiaris, UniProt Q1A7N1)" display_unit=% number=100
molecule="Nc1ccc(C2CCCN2C(=O)C(Nc2ccccc2F)c2ccc(C(F)(F)F)cc2)cc1 (stereo not shown)" target="canine TRPM8 (Canis lupus familiaris, UniProt Q1A7N1)" display_unit=% number=100
molecule="O=C(C(Nc1ccccc1F)c1ccc(C(F)(F)F)cc1)N1CCCC1c1cncc(Br)c1 (single isomer, unassigned) [Cpd 345]" target="canine TRPM8 (Canis lupus familiaris, UniProt Q1A7N1)" display_unit=% number=92
molecule="O=C(C(Nc1ccccc1F)c1cc2cccnc2s1)N1CCCC1c1ccccc1F (racemic) [Cpd 320]" target="canine TRPM8 (Canis lupus familiaris, UniProt Q1A7N1)" display_unit=% number=87
molecule="COC(=O)c1ccc(C2CCCN2C(=O)C(Nc2ccccc2F)c2ccc3c(c2)CCO3)cc1 (stereo not shown)" target="canine TRPM8 (Canis lupus familiaris, UniProt Q1A7N1)" display_unit=% number=83
molecule="O=C(C(Nc1ccccc1F)c1ccc2ncccc2c1)N1CCCC1c1ccccc1F (single isomer, unassigned) [Cpd 247]" target="canine TRPM8 (Canis lupus familiaris, UniProt Q1A7N1)" display_unit=% number=93
molecule="O=C(C(Nc1ccccc1F)c1cc2ccccc2s1)N1CCCC1c1ccccn1 (single isomer, unassigned) [Cpd 330]" target="canine TRPM8 (Canis lupus familiaris, UniProt Q1A7N1)" display_unit=% number=101

* * *

As shown below, each of these compounds has a reported inhibition at 0.2 µM value.
Molecular target: canine TRPM8 (Canis lupus familiaris, UniProt Q1A7N1)
Construct: expressed in transfected cells
Assay: In Vitro Canine TRPM8 Functional Assay (Ca2+ fluorescence, icilin activation)
Assay type: cell-based
Details: HEK293, 0.2 μM compound; canine TRPM8 HEK293; icilin
Procedure: The functional activity of compounds of the formula (I) was determined by measuring changes in intracellular calcium concentration using a Ca^2+-sensitive fluorescent dye. The changes in fluorescent signal were monitored by a fluorescence plate reader, either a FLIPR™ (Molecular Devices) or FDSS (Hamamatsu). Increases in intracellular Ca^2+ concentration were readily detected upon activation with icilin. […]
ENDPOINT LABEL: inhibition at 0.2 µM (%)

compound="CC(C)(C)OC(=O)N1CC=C(c2ccc(C(Nc3ccccc3F)C(=O)N3CCCC3c3ccccc3F)cc2)CC1 (stereo not shown)" target="canine TRPM8 (Canis lupus familiaris, UniProt Q1A7N1)" number=99
compound="O=C(O)c1ccc(-c2ccc(C(Nc3ccccc3F)C(=O)N3CCCC3c3ccccc3Cl)cc2)cc1 (stereo not shown)" target="canine TRPM8 (Canis lupus familiaris, UniProt Q1A7N1)" number=99
compound="O=C(C(c1ccc(C(F)(F)F)cc1)N1CCc2ccccc21)N1CCC[C@H]1c1cccnc1 (single isomer, unassigned) [Cpd 274]" target="canine TRPM8 (Canis lupus familiaris, UniProt Q1A7N1)" number=98
compound="O=C(C(Nc1ccccc1F)c1ccc(C(F)(F)F)cc1)N1CCCC1c1ccncc1 (stereo not shown)" target="canine TRPM8 (Canis lupus familiaris, UniProt Q1A7N1)" number=97
compound="O=C(C(Nc1ccccc1F)c1ccc(C(F)(F)F)cc1)N1CCCC1c1ccccn1 (stereo not shown)" target="canine TRPM8 (Canis lupus familiaris, UniProt Q1A7N1)" number=100
compound="O=C(C(Nc1ccccc1F)c1ccc(-c2cccnc2)cc1)N1CCCC1c1ccccc1F (stereo not shown)" target="canine TRPM8 (Canis lupus familiaris, UniProt Q1A7N1)" number=91
compound="O=C(C(Nc1ccccc1F)c1ccc(-c2ccccc2)nc1)N1CCC[C@H]1c1ccccc1F (single isomer, unassigned) [Cpd 307]" target="canine TRPM8 (Canis lupus familiaris, UniProt Q1A7N1)" number=102
compound="O=C(C(Nc1ccccc1F)c1ccc(C(F)(F)F)cc1)N1CCC[C@H]1c1ccccc1F (stereo partly shown)" target="canine TRPM8 (Canis lupus familiaris, UniProt Q1A7N1)" number=89
compound="COC(=O)C1CCC(c2ccccc2)N1C(=O)C(Nc1ccccc1)c1ccc(Cl)cc1 (single isomer, unassigned)" target="canine TRPM8 (Canis lupus familiaris, UniProt Q1A7N1)" number=92
compound="COc1ccccc1C1CCCN1C(=O)C(Nc1cc(F)ccc1F)c1ccc(Cl)cc1 (stereo not shown)" target="canine TRPM8 (Canis lupus familiaris, UniProt Q1A7N1)" number=102
compound="O=C(C(Nc1ccccc1F)c1ccc(C(F)(F)F)cc1)N1CCCC1c1cccc(F)c1 (single isomer, unassigned)" target="canine TRPM8 (Canis lupus familiaris, UniProt Q1A7N1)" number=82
compound="O=C(C(Nc1cc(F)ccc1F)c1ccc(Cl)cc1)N1Cc2ccccc2C1 (stereo not shown)" target="canine TRPM8 (Canis lupus familiaris, UniProt Q1A7N1)" number=98
compound="Nc1cccc(C2CCCN2C(=O)C(Nc2ccccc2F)c2ccc(C(F)(F)F)cc2)c1 (stereo not shown)" target="canine TRPM8 (Canis lupus familiaris, UniProt Q1A7N1)" number=101

* * *

target: canine TRPM8 (Canis lupus familiaris, UniProt Q1A7N1); construct: expressed in transfected cells; assay: In Vitro Canine TRPM8 Functional Assay (Ca2+ fluorescence, icilin activation); type: cell-based; settings: 0.2 μM compound; canine TRPM8 HEK293; icilin; 0.2 µM
ENDPOINT LABEL: % Inh @ 0.2 μM (%)

compound="O=C(C(Nc1ccccc1F)c1ccc(Br)cc1)N1CCCC1c1ccccc1F (single isomer, unassigned)" endpoint_label="% Inh @ 0.2 μM" display_unit=% number=87
compound="O=C(C(Nc1ccccc1F)c1cncc2ccccc12)N1CCCC1c1ccccc1F (single isomer, unassigned) [Cpd 332]" endpoint_label="% Inh @ 0.2 μM" display_unit=% number=47
compound="O=C(C(Nc1ccccc1F)c1ccc(C(F)(F)F)cc1)N1CCCC1c1ccccc1Cl (single isomer, unassigned)" endpoint_label="% Inh @ 0.2 μM" display_unit=% number=101
compound="O=C(C(Nc1ccccc1F)c1cc2ccccc2s1)N1CCCC1c1ccncc1 (single isomer, unassigned)" endpoint_label="% Inh @ 0.2 μM" display_unit=% number=95
